# TARGET OR TEST SYSTEM: T1, recombinant endoglin (UniProt P17813 26-586, limits assumed)
# T1 sequence (looked up): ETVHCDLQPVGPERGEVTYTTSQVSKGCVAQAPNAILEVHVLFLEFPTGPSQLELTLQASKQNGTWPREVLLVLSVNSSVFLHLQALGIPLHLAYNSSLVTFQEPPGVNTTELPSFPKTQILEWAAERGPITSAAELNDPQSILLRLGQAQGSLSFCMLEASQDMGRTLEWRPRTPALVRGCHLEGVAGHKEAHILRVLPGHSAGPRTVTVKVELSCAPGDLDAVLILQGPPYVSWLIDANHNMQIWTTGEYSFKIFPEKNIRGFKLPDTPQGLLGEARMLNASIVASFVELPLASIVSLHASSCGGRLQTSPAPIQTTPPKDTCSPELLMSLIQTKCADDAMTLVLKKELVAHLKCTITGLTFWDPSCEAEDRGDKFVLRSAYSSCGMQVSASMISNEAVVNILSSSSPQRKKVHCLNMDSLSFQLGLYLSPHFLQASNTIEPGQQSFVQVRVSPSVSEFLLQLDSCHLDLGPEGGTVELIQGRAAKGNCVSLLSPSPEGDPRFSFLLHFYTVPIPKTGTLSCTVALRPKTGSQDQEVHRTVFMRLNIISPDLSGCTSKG
# PROTOCOL: BIAcore SPR, antibody captured on protein A chip, recombinant endoglin as analyte, 25 C
Please go through the items and note down their koff.
Answers are plain numbers, in s⁻¹.

Study these solved cases before continuing.
>  <BINDER>
VK1AAVH1R (antibody, V domains shown, IgG1 heavy chain, kappa light chain) VH: EVQLVESGGGLVKPGGSLRLSCAASGFTFSDAWMDWVRQAPGKGLEWVGEIRSRASNHATYYAESVKGRFTISRDDSKNTLYLQMNSLKTEDTAVYYCTRWRRFFDSWGQGTLVTVSS VL: DIQMTQSPSSLSASVGDRATITCRASSSVSYMHWYQQKPGKAPKPWAYATSNLASGVPSRFSGSGSGTDYTLTISSLQPEDFATYYCQQWSSNPLTFGGGTKVEIK

>  <REPORTED METRIC>
koff

>  <QUANTITY UNIT>
s⁻¹

>  <QUANTITATIVE RESULT>
3.41e-05

$$$$
>  <BINDER>
VK1AAVH1Q (antibody, V domains shown, IgG1 heavy chain, kappa light chain) VH: EVQLVESGGGLVKPGGSLRLSCAASGFTFSDAWMDWVRQAPGKGLEWVGEIRSQASNHATYYAESVKGRFTISRDDSKNTLYLQMNSLKTEDTAVYYCTRWRRFFDSWGQGTLVTVSS VL: DIQMTQSPSSLSASVGDRATITCRASSSVSYMHWYQQKPGKAPKPWAYATSNLASGVPSRFSGSGSGTDYTLTISSLQPEDFATYYCQQWSSNPLTFGGGTKVEIK

>  <REPORTED METRIC>
koff

>  <QUANTITY UNIT>
s⁻¹

>  <QUANTITATIVE RESULT>
3.03e-05

$$$$
>  <BINDER>
chimeric anti-CD105 antibody TRC105 (antibody, V domains shown, Chimeric monoclonal antibody with the murine SN6j variable regions; also called chimeric anti-endoglin antibody; c-SN6j) VH: EVKLEESGGGLVQPGGSMKLSCAASGFTFSDAWMDWVRQSPEKGLEWVAEIRSKASNHATYYAESVKGRFTISRDDSKSSVYLQMNSLRAEDTGIYYCTRWRRFFDSWGQGTTLTVSS VL: QIVLSQSPAILSASPGEKVTMTCRASSSVSYMHWYQQKPGSSPKPWIYATSNLASGVPVRFSGSGSGTSYSLTISRVEAEDAATYYCQQWSSNPLTFGAGTKLELK

>  <REPORTED METRIC>
koff

>  <QUANTITY UNIT>
s⁻¹

>  <QUANTITATIVE RESULT>
3.28e-05

$$$$

Next, consider the following binder.
Request: Entry VK1AAVH1A2 (antibody, V domains shown, IgG1 heavy chain, kappa light chain; also called humanized/deimmunized anti-endoglin antibody VK1AAVH1A2) VH: EVQLVESGGGLVKPGGSLRLSCAASGFTFSDAWMDWVRQAPGKGLEWVGEARSKASNHATYYAESVKGRFTISRDDSKNTLYLQMNSLKTEDTAVYYCTRWRRFFDSWGQGTLVTVSS VL: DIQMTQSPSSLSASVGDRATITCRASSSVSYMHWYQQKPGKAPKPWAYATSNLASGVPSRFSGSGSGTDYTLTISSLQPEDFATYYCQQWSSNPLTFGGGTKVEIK has what koff?
Result: 3.25e-05

Data provenance is patent US20200048360A1.
